- test system: DB_Y197A (human, UniProt P03372 176-250, Y197A)
- Sequence (P03372 176-250 Y197A): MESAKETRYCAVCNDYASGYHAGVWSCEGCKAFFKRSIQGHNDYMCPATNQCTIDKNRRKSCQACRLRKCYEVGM
- protocol notes: ITC
measure name: Kd (nM)
Numbers only, in nM.

Kd reported for this binder ERE duplex (dsDNA) DNA 1: CCCAGGTCACAGTGACCTGCG DNA 2: CGCAGGTCACTGTGACCTGGG : 316
